# Protocol Text: NCI Yeast Anticancer Drug Screen. Data for the mlh1 rad18 strain (AID 175)
# Stated Conditions: S. cerevisiae mlh1 rad18 strain growth inhibition; at 5.0 µM (retest, dose inferred, filed as 0.5); hits give high values
Compounds without any hit were thinned out: in the full panel of roughly 79,000, 15% have a hit.
Measure Name: growth inhibition (%)
One number for each entry, in %.

Consider the following illustrative entries.
Smiles String	Result Unit	growth inhibition
CN1COc2c(Cl)cc(Cl)cc2C1	%	-1
CCO/C=C1N=C(/C=C/c2ccccc2Cl)OC/1=O	%	-2

Query :: Which value of growth inhibition has been reported for CC(C)NC(=O)OCCN=C1c2ccccc2CCc2ccccc21 in the records?
Result :: -11

Data provenance: PubChem BioAssay (NCI)
